System: CML-T1 (Chronic Myelogenous Leukemia)
Assay: combination Emax (second highest fraction inhibited in the dose matrix, 72 h); higher = more inhibition; extreme values may be limits of the assay
Can you tell me combination Emax for the items I'm about to list?
One number for each entry.

// known answers, use as guide
{"Molecule": "NC1(C(=O)N[C@@H](CCO)c2ccc(Cl)cc2)CCN(c2ncnc3[nH]ccc23)CC1 [Capivasertib] + Cn1cnc2c(F)c(Nc3ccc(Br)cc3Cl)c(C(=O)NOCCO)cc21 [Selumetinib] (first compound max 10 µM, 7x7, partner max 10 µM)", "Target Of Assay": "CML-T1 (Chronic Myelogenous Leukemia)", "combination Emax": 0.828}
{"Molecule": "O=C(c1cc(Cc2n[nH]c(=O)c3ccccc23)ccc1F)N1CCN(C(=O)C2CC2)CC1 [Olaparib] + CN(CC[C@H](CSC1=CC=CC=C1)NC2=C(C=C(C=C2)S(=O)(=O)NC(=O)C3=CC=C(C=C3)N4CCC(CC4)[C@H](C5=CC=CC=C5C6=CC=C(C=C6)Cl)O)S(=O)(=O)C(F)(F)F)CCO [AZD4320] (first compound max 10 µM, 7x7, partner max 1 µM)", "Target Of Assay": "CML-T1 (Chronic Myelogenous Leukemia)", "combination Emax": 0.999}

Entry under review: NC1(C(=O)N[C@@H](CCO)c2ccc(Cl)cc2)CCN(c2ncnc3[nH]ccc23)CC1 [Capivasertib] + CC(=O)c1c(C)c2cnc(Nc3ccc(N4CCNCC4)cn3)nc2n(C2CCCC2)c1=O [Palbociclib] (first compound max 10 µM, 7x7, partner max 10 µM) . Reported combination Emax?
0.939

----------
Test system: RMG-I (Ovarian Carcinoma);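 also: after 72 h of two-drug dosing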
Assay: Bliss excess, mean over the matrix (fraction); higher = more synergy
Can you tell me Bliss excess for the items I'm about to list?
Numbers only.

// known answers, use as guide
{"Compound": "COc1nnc2ccc(N3CCC(c4ccc(OCCN5CCN(C)C(=O)[C@H]5C)cc4)CC3)nn12 [AZD5153] + C[C@@H]1COCCN1C2=NC(=NC(=C2)C3(CC3)[S@](=N)(=O)C)C4=C5C=CNC5=NC=C4 [AZD6738] (first compound max 1 µM, 7x7, partner max 10 µM)", "Bliss excess": -0.0261}
{"Compound": "CCc1c2c(nc3ccc(O)cc13)-c1cc3c(c(=O)n1C2)COC(=O)[C@]3(O)CC [SN-38] + CN(C)CCCOc1ccc(-c2ccc3ncc4c(c3c2)n(C2CCOCC2)c(=O)n4C)cn1 [AZD0156] (first compound max 0.3 µM, 7x7, partner max 1 µM)", "Bliss excess": 0.018}

Continue with the compound presented below.
Entry under review: CN(CCO)CC[C@H](CSc1ccccc1)Nc1ccc(S(=O)(=O)NC(=O)c2ccc(N3CCC([C@@H](O)c4ccccc4-c4ccc(Cl)cc4)CC3)cc2)cc1S(=O)(=O)C(F)(F)F [AZD4320] + C[C@@H](Nc1cc(F)cc(F)c1)c1cc(C(=O)N(C)C)cc2c(=O)cc(N3CCOCC3)oc12 [AZD8186] (first compound max 1 µM, 7x7, partner max 3 µM) . Reported Bliss excess?
-0.0066

----------
Tested on: Becker (Low Grade Glioma)
Experiment: combination Emax (second highest fraction inhibited in the dose matrix, 72 h); higher = more inhibition; extreme values may be limits of the assay
Can you tell me combination Emax for the items I'm about to list?
One number for each entry.

// known answers, use as guide
{"Compound": "CN(CCO)CC[C@H](CSc1ccccc1)Nc1ccc(S(=O)(=O)NC(=O)c2ccc(N3CCC([C@@H](O)c4ccccc4-c4ccc(Cl)cc4)CC3)cc2)cc1S(=O)(=O)C(F)(F)F [AZD4320] + CN(C)CCCOc1ccc(-c2ccc3ncc4c(c3c2)n(C2CCOCC2)c(=O)n4C)cn1 [AZD0156] (first compound max 1 µM, 7x7, partner max 1 µM)", "Target Of Assay": "Becker (Low Grade Glioma)", "Numeric Readout": 0.0869}
{"Compound": "CN(CCO)CC[C@H](CSc1ccccc1)Nc1ccc(S(=O)(=O)NC(=O)c2ccc(N3CCC([C@@H](O)c4ccccc4-c4ccc(Cl)cc4)CC3)cc2)cc1S(=O)(=O)C(F)(F)F [AZD4320] + CC(=O)O[C@H]1C(=O)[C@@]2(C)[C@H]([C@H](OC(=O)c3ccccc3)[C@]3(O)C[C@H](OC(=O)[C@H](O)[C@@H](NC(=O)c4ccccc4)c4ccccc4)C(C)=C1C3(C)C)[C@]1(OC(C)=O)CO[C@@H]1C[C@@H]2O [Paclitaxel] (first compound max 1 µM, 7x7, partner max 3 µM)", "Target Of Assay": "Becker (Low Grade Glioma)", "Numeric Readout": 1}

Continue with the compound presented below.
Entry under review: Cc1nc(-c2cn3c(n2)-c2ccc(-c4cnn(C(C)(C)C(N)=O)c4)cc2OCC3)n(C(C)C)n1 [Taselisib] + O=C(Nc1ccc2[nH]nc(-c3ccncc3)c2c1)[C@@H]1CCN(CC(=O)N2CCN(c3ccc(-c4ncccn4)cc3)CC2)C1 [SCH772984] (first compound max 10 µM, 7x7, partner max 5 µM) . Reported combination Emax?
0.757
